Assay: Solubility data of compounds in water over the pH range
Type: physicochemical
Conditions: pH 4.04
Where a SMILES comes first, the peptide text is derived from it. Bridges are numbered along the chain shown (N, C = ends). [ ]: non-standard residue; d: D form. The star is where a group is joined. C16 diacid = O=C(O)CCCCCCCCCCCCCCC(=O)*; Hyp = O=C(O)[C@@H]1C[C@@H](O)CN1; NTA = O=C(O)CN(CC(=O)O)CC(=O)*; Nle = CCCC[C@H](N)C(=O)O; AEEA = NCCOCCOCC(=O)O
propertyName: solubility at 3 days

For this compound ( CCCC[C@H](NC(=O)[C@H](CCCCNC(=O)CN(CC(=O)O)CC(=O)O)NC(=O)[C@H](CO)NC(=O)[C@H](CCC(N)=O)NC(=O)[C@H](CO)NC(=O)CNC(=O)COCCOCCNC(=O)CCCCCCCCCCCCCCC(=O)O)C(=O)N[C@H]1CCC(=O)NCCCC[C@@H](C(N)=O)NC(=O)[C@H](Cc2c[nH]c3ccccc23)NC(=O)[C@H](CCCNC(=N)N)NC(=O)[C@@H](Cc2ccccc2)NC(=O)[C@@H]2C[C@@H](O)CN2C1=O [Example 21] ({C16 diacid-AEEA}-GSQSK(NTA)[Nle]E[Hyp][dF]RWK-NH2; lactam 7-12) ), measured solubility at 3 days is 26 µM
